# measured on: T1, NativeRPtag(large)_with_Tags_and_Cys (Thermoanaerobacter tengcongensis)
# T1 construct: Unlabeled in anisotropy assays; coupled through the engineered N-terminal Cys to SulfoLink agarose or maleimide plates in column, pull-down and ELISA assays
# T1 chain: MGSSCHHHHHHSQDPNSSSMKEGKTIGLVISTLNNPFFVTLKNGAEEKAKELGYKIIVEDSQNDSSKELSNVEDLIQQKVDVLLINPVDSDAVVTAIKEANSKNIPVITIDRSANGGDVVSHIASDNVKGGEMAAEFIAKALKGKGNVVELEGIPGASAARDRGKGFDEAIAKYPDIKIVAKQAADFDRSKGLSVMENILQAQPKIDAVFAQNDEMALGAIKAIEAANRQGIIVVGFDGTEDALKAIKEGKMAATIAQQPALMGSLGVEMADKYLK
# procedure details: calculated from koff and Kd
No end group written: not given here. *: point of attachment. RhodamineB = CCN(CC)c1ccc2c(-c3ccccc3C(=O)*)c3ccc(=[N+](CC)CC)cc-3oc2c1
measured property: kon (M⁻¹ s⁻¹)
# unit: M⁻¹ s⁻¹ | format: bare number

q: Please indicate kon recorded for RhodamineB-GEKIPNFAPAELKLITKENVQ [RPtag(small) i8a]
a: 1.43e+06

q: Please indicate kon recorded for RhodamineB-KIPNFIPAELKLITKANVQ [RPtag(small) Nd2, e18a]
a: 1.08e+06

q: Please indicate kon recorded for RhodamineB-GEKIPNFIPAELKLATKENVQ [RPtag(small) i15a]
a: 4.17e+06

q: Please indicate kon recorded for RhodamineB-GEKIPNFIPAELKLITAENVQ [RPtag(small) k17a]
a: 167000

q: Please indicate kon recorded for RhodamineB-KIANFIPAELKLITK [RPtag(small) Nd2, Cd4, p5a]
a: 3.67e+06

q: Please indicate kon recorded for RhodamineB-GAKIPNFIPAELKLITKENVQ [RPtag(small) e2a]
a: 850000

q: Please indicate kon recorded for RhodamineB-GEKIPNFIPAEAKLITKENVQ [RPtag(small) l12a]
a: 717000

q: Please indicate kon recorded for RhodamineB-GEKIPAFIPAELKLITKENVQ [RPtag(small) n6a]
a: 75000

q: Please indicate kon recorded for RhodamineB-KIPNFIPAELKLITKANAA [RPtag(small) Nd2, e18a, v20a, q21a]
a: 600000

q: Please indicate kon recorded for RhodamineB-IPAELKLITKENVQ [RPtag(small) Nd7]
a: 300000

q: Please indicate kon recorded for RhodamineB-GEKIPNFIPAELKLITKEN [RPtag(small) Cd2]
a: 1.63e+06

q: Please indicate kon recorded for RhodamineB-PAELKLITKENVQ [RPtag(small) Nd8]
a: 1.55e+06

q: Please indicate kon recorded for RhodamineB-AIANFIPAELKLITKENVQ [RPtag(small) Nd2, k3a, p5a]
a: 400000

q: Please indicate kon recorded for RhodamineB-KIPNFIPAELKLITKA [RPtag(small) Nd2, Cd3, e18a]
a: 6.67e+06

q: Please indicate kon recorded for RhodamineB-GEKIPNFIPAELKLITKENVA (built here from the native peptide with the stated change) [RPtag(small) q21a]
a: 583000

q: Please indicate kon recorded for RhodamineB-AELKLITKENVQ [RPtag(small) Nd9]
a: 1.37e+06

q: Please indicate kon recorded for RhodamineB-ELKLITKENVQ [RPtag(small) Nd10]
a: 717000

q: Please indicate kon recorded for RhodamineB-KIPNFIPAELKLITKENVQ [RPtag(small) Nd2]
a: 883000

q: Please indicate kon recorded for RhodamineB-KIPNFIPAELKLITK [RPtag(small) Nd2, Cd4]
a: 3.33e+06

q: Please indicate kon recorded for RhodamineB-RIANFIPAELKLITKANVQ [RPtag(small) Nd2, k3r, p5a, e18a]
a: 567000

q: Please indicate kon recorded for RhodamineB-GEKIPNAIPAELKLITKENVQ [RPtag(small) f7a]
a: 517000

q: Please indicate kon recorded for RhodamineB-FIPAELKLITKENVQ [RPtag(small) Nd6]
a: 2e+06

q: Please indicate kon recorded for RhodamineB-EKIPNFIPAELKLITKENVQ [RPtag(small) Nd1]
a: 567000

q: Please indicate kon recorded for RhodamineB-NFIPAELKLITKENVQ [RPtag(small) Nd5]
a: 1.6e+06

q: Please indicate kon recorded for RhodamineB-IANFIPAELKLITKANVQ [RPtag(small) Nd3, p5a, e18a]
a: 1.53e+06

q: Please indicate kon recorded for RhodamineB-GEKIPNFIPAALKLITKENVQ [RPtag(small) e11a]
a: 76700

q: Please indicate kon recorded for RhodamineB-KIANFIPAELKLITKA [RPtag(small) Nd2, Cd3, p5a, e18a]
a: 5.5e+06
